B1: Double-stranded RNA-binding protein Staufen homolog 1, residues 183 to 249; numbered along this chain, O95793 (parent)
chain: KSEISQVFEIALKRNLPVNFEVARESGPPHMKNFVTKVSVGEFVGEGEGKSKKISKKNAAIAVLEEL

Variants of: B1
methodSummary: abundance fitness (aPCA) (normalised: wild type 0, dead -1); higher = more abundant; growth selection in yeast, the domain comes from the species named
protocolConditions: Homo sapiens
Binary classification by abundance fitness, with -0.5 as an inclusive lower bound for True; all other cases are False.

>  <residueString>
KSEISQVFEIALKRNLPVNFEVARESGPPHMKNFVTKLSVGEFVGEGEGKSKKISKKNAAIAVLEEL [V38L]

>  <assignedLabel>
True

$$$$
>  <residueString>
KSEISQSFEIALKRNLPVNFEVARESGPPHMKNFVTKVSVGEFVGEGEGKSKKISKKNAAIAVLEEL [V7S]

>  <assignedLabel>
False

$$$$
>  <residueString>
KSEISQVFEIALKRNLPVNFEVARESGPPHMKNFVTVVSVGEFVGEGEGKSKKISKKNAAIAVLEEL [K37V]

>  <assignedLabel>
True

$$$$
>  <residueString>
KSEISQVFEIALKRNLPVNFEVARESGNPHMKNFVTKVSVGEFVGEGEGKSKKISKKNAAIAVLEEL [P28N]

>  <assignedLabel>
True

$$$$
>  <residueString>
KSNISQVFEIALKRNLPVNFEVARESGPPHMKNFVTKVSVGEFVGEGEGKSKKISKKNAAIAVLEEL [E3N]

>  <assignedLabel>
True

$$$$
>  <residueString>
KSEISQVFEIALKRNLPVNFEVARESGPPHMKNFVTKVLVGEFVGEGEGKSKKISKKNAAIAVLEEL [S39L]

>  <assignedLabel>
True

$$$$
>  <residueString>
KSEISLVFEIALKRNLPVNFEVARESGPPHMKNFVTKVSVGEFVGEGEGKSKKISKKNAAIAVLEEL [Q6L]

>  <assignedLabel>
True

$$$$
>  <residueString>
KSEISQVTEIALKRNLPVNFEVARESGPPHMKNFVTKVSVGEFVGEGEGKSKKISKKNAAIAVLEEL [F8T]

>  <assignedLabel>
True

$$$$
>  <residueString>
KSEISQVFEIALKRNLPVNFEVARESGPPHMKNFVTKTSVGEFVGEGEGKSKKISKKNAAIAVLEEL [V38T]

>  <assignedLabel>
True

$$$$
>  <residueString>
KSEISQVFEIALKRNLPVNFENARESGPPHMKNFVTKVSVGEFVGEGEGKSKKISKKNAAIAVLEEL [V22N]

>  <assignedLabel>
True

$$$$
>  <residueString>
KSEISQVFEIALKVNLPVNFEVARESGPPHMKNFVTKVSVGEFVGEGEGKSKKISKKNAAIAVLEEL [R14V]

>  <assignedLabel>
False

$$$$
>  <residueString>
KSEISQVFEIALKRNLPVNFEVARESGPPHMKPFVTKVSVGEFVGEGEGKSKKISKKNAAIAVLEEL [N33P]

>  <assignedLabel>
True

$$$$
>  <residueString>
KSEISQVFEIALKRNLPVNFEVARESGPPHMKNFVTKVSVGEFVGEGEGKSKKISKKIAAIAVLEEL [N58I]

>  <assignedLabel>
False

$$$$
>  <residueString>
KSEISQVFEIALKRNLPVNIEVARESGPPHMKNFVTKVSVGEFVGEGEGKSKKISKKNAAIAVLEEL [F20I]

>  <assignedLabel>
True

$$$$
>  <residueString>
KSEISQVFEIALKRNLPVNFEVARESGPPHMKNFVTKVSVGEFPGEGEGKSKKISKKNAAIAVLEEL [V44P]

>  <assignedLabel>
False

$$$$
>  <residueString>
KSEISQVFEIALKRNLPVNFEVYRESGPPHMKNFVTKVSVGEFVGEGEGKSKKISKKNAAIAVLEEL [A23Y]

>  <assignedLabel>
True

$$$$
>  <residueString>
KSEISQVFEIALKRNLPVNFEVARESCPPHMKNFVTKVSVGEFVGEGEGKSKKISKKNAAIAVLEEL [G27C]

>  <assignedLabel>
True

$$$$
>  <residueString>
KSEISQVFEIALKRNLPVNFEVARESGPPHMKNMVTKVSVGEFVGEGEGKSKKISKKNAAIAVLEEL [F34M]

>  <assignedLabel>
False

$$$$
>  <residueString>
KSEISQVEEIALKRNLPVNFEVARESGPPHMKNFVTKVSVGEFVGEGEGKSKKISKKNAAIAVLEEL [F8E]

>  <assignedLabel>
True

$$$$
>  <residueString>
KSEISQVFEIALKRNLPVNFEVARESGPPHMKNFVTKVSVGEFVGEGEGKSKKISKKNAAIAVLGEL [E65G]

>  <assignedLabel>
True

$$$$
>  <residueString>
KSEISQVFEIALKRNLNVNFEVARESGPPHMKNFVTKVSVGEFVGEGEGKSKKISKKNAAIAVLEEL [P17N]

>  <assignedLabel>
True

$$$$
>  <residueString>
KSEISQVFEIALKRNLPVNFEVARESGPPHMKNFVTKVSVGEFVGEGEGKSKKISPKNAAIAVLEEL [K56P]

>  <assignedLabel>
False

$$$$
>  <residueString>
KSEISQVFEIALKRNLPVNFEVARESGPPHMKNGVTKVSVGEFVGEGEGKSKKISKKNAAIAVLEEL [F34G]

>  <assignedLabel>
False

$$$$
>  <residueString>
KSEIPQVFEIALKRNLPVNFEVARESGPPHMKNFVTKVSVGEFVGEGEGKSKKISKKNAAIAVLEEL [S5P]

>  <assignedLabel>
False

$$$$
>  <residueString>
KSEISQVFEIALKRNLPVNFEVARESGPPHMKNFVTKVSVGEFVGEGSGKSKKISKKNAAIAVLEEL [E48S]

>  <assignedLabel>
True

$$$$
>  <residueString>
KSESSQVFEIALKRNLPVNFEVARESGPPHMKNFVTKVSVGEFVGEGEGKSKKISKKNAAIAVLEEL [I4S]

>  <assignedLabel>
True

$$$$
>  <residueString>
KSEISQVFEIALKRNLPVNFEVARESGPPHMKNFVTKVSVGEFVGEGEGKSKKISKKNAPIAVLEEL [A60P]

>  <assignedLabel>
False

$$$$
>  <residueString>
KSEISQVFEIALKRNLPVNFEVARESGPPHMKNFRTKVSVGEFVGEGEGKSKKISKKNAAIAVLEEL [V35R]

>  <assignedLabel>
True

$$$$
>  <residueString>
KSEISQVFEIALKRNLPVNFEVARESGPPHMKNFVTKVSVGEFVGEGEGKSKKIEKKNAAIAVLEEL [S55E]

>  <assignedLabel>
False

$$$$
>  <residueString>
KSEISQVFEIALKRNLPVNFEVARESGPPHMKNFVTKVSVGEFGGEGEGKSKKISKKNAAIAVLEEL [V44G]

>  <assignedLabel>
True

$$$$
>  <residueString>
KSEISQVFEIALKRNLPVNFEVDRESGPPHMKNFVTKVSVGEFVGEGEGKSKKISKKNAAIAVLEEL [A23D]

>  <assignedLabel>
True

$$$$
>  <residueString>
KSEISQVFEIALKRNLPVNFEVARESGPPHMKNFVTKRSVGEFVGEGEGKSKKISKKNAAIAVLEEL [V38R]

>  <assignedLabel>
False

$$$$
>  <residueString>
KSEISQVFEIALKRNLPVNFEVARESGPPHMKNFVTKVSVGEFVGEGEGKSKKIGKKNAAIAVLEEL [S55G]

>  <assignedLabel>
False

$$$$
>  <residueString>
KSEISQVFEIALIRNLPVNFEVARESGPPHMKNFVTKVSVGEFVGEGEGKSKKISKKNAAIAVLEEL [K13I]

>  <assignedLabel>
True

$$$$
>  <residueString>
KSEISQVFEIALKRNLPVNFEVARESGPPHMKNFVTKVSVGEFVGEGEGKSKEISKKNAAIAVLEEL [K53E]

>  <assignedLabel>
True

$$$$
>  <residueString>
KSEISQVFEIALKRNLPVNFEVARESGPPHMKNFVTKVSVGEFVGEGEGKSKKISKKNAAIAVLEQL [E66Q]

>  <assignedLabel>
True

$$$$
>  <residueString>
KSEISQVFEIALKRNLPVNFEVARESGPPHMKNFVTKVSVGEFVGEGECKSKKISKKNAAIAVLEEL [G49C]

>  <assignedLabel>
False

$$$$
>  <residueString>
KSEISQVFEIALKRNLPVNFEVARESGPPHQKNFVTKVSVGEFVGEGEGKSKKISKKNAAIAVLEEL [M31Q]

>  <assignedLabel>
True

$$$$
>  <residueString>
KSEISQVYEIALKRNLPVNFEVARESGPPHMKNFVTKVSVGEFVGEGEGKSKKISKKNAAIAVLEEL [F8Y]

>  <assignedLabel>
True

$$$$
>  <residueString>
KSEISQVFEIALKRNLPVNFEVARESGPPHMKNFVTKVSTGEFVGEGEGKSKKISKKNAAIAVLEEL [V40T]

>  <assignedLabel>
False

$$$$
>  <residueString>
KSEISQVFEIALKRNLPVNFEVARESGPPHMKNFVTYVSVGEFVGEGEGKSKKISKKNAAIAVLEEL [K37Y]

>  <assignedLabel>
False

$$$$
>  <residueString>
KSFISQVFEIALKRNLPVNFEVARESGPPHMKNFVTKVSVGEFVGEGEGKSKKISKKNAAIAVLEEL [E3F]

>  <assignedLabel>
True

$$$$
>  <residueString>
KSEISQVFEIALKRNLPVYFEVARESGPPHMKNFVTKVSVGEFVGEGEGKSKKISKKNAAIAVLEEL [N19Y]

>  <assignedLabel>
True

$$$$
>  <residueString>
KSEISQVFEIALKRNLPVNFEVARESGPPHMKNFVTKVSVGEFVGEGEGKKKKISKKNAAIAVLEEL [S51K]

>  <assignedLabel>
True

$$$$
>  <residueString>
KSEISQVFEIALKRNLPVNFEVARESGPPHMKNFVTKVSVGEFVGEGEGKSKKFSKKNAAIAVLEEL [I54F]

>  <assignedLabel>
False

$$$$
